Biological target: ICE (Homo sapiens, UniProt P29466)
Experiment: Enzyme assay with UV-visible substrate (visible ICE assay, Succinyl-Tyr-Val-Ala-Asp-pNitroanilide)
Type: biochemical
Settings: Table 5
Consider the following compounds; for each one, report its log10(Ki).
Note: values are log10 of Ki expressed in nM.

Identify measured log10(Ki) associated with "COc1ccccc1C(=O)N[C@H]1CCC(=O)N2CCC[C@@H](C(=O)N[C@H](C=O)CC(=O)O)N2C1=O"
0.81

Identify measured log10(Ki) associated with CC(C)OC1OC(=O)C[C@@H]1NC(=O)[C@@H]1CCCN2C(=O)CC[C@H](NC(=O)c3ccccc3)C(=O)N12 (stereo partly drawn) [Compound 2100a]
2.00

Identify measured log10(Ki) associated with "O=C[C@H](CC(=O)O)NC(=O)[C@@H]1CCCN2C(=O)CC[C@H](NC(=O)c3ccc4ccccc4c3O)C(=O)N12"
1.08

Identify measured log10(Ki) associated with "O=C[C@H](CC(=O)O)NC(=O)[C@@H]1CCCN2C(=O)CC[C@H](NC(=O)c3ccc(F)cc3)C(=O)N12"
1.15

Identify measured log10(Ki) associated with "CC(=O)c1ccc(C(=O)N[C@H]2CCC(=O)N3CCC[C@@H](C(=O)N[C@H](C=O)CC(=O)O)N3C2=O)cc1"
1.93

Identify measured log10(Ki) associated with CC(=O)N1C[C@H](NC(=O)c2ccccc2)C(=O)N(CC(=O)N[C@H](C=O)CC(=O)O)c2ccccc21 [Compound 605d]
1.98

---

Tested on: IL-1β, human peripheral blood mononuclear cells (PBMC)
Test: PBMC cell assay: IL-1β assay with human PBMC or enriched adherent mononuclear cells, LPS-stimulated
Format: cell-based
Conditions: Homo sapiens, PBMC, * = values obtained upon reassay
Mark each entry 1 if its IC50 sits below 0.9 µM, and 0 for all others.

A record lists "O=C[C@H](CC(=O)O)NC(=O)[C@@H]1CCCN2C(=O)CC[C@H](NC(=O)c3ccsc3)C(=O)N12" . Is its IC50 below 0.9 µM?
0

A record lists O=C(O)C[C@H](NC(=O)[C@@H]1CCCN2C(=O)CC[C@H](NC(=O)CCc3ccccc3)C(=O)N12)C(=O)CSCc1ccccc1Cl [Compound 125b] . Is its IC50 below 0.9 µM?
1

A record lists O=C(O)C[C@H](NC(=O)[C@@H]1CCCN2C(=O)CC[C@H](NC(=O)OCc3ccccc3)C(=O)N12)C(=O)COC(=O)c1c(Cl)cccc1Cl [Compound 217d] . Is its IC50 below 0.9 µM?
1

A record lists "O=C(O)C[C@H](NC(=O)[C@@H]1CCCN2C(=O)CC[C@H](NC(=O)CCc3ccccc3)C(=O)N12)C(=O)COC(=O)c1c(Cl)cccc1Cl" . Is its IC50 below 0.9 µM?
1

A record lists "O=C[C@H](CC(=O)O)NC(=O)[C@@H]1CCCN2C(=O)CC[C@H](NC(=O)c3cccnc3)C(=O)N12" . Is its IC50 below 0.9 µM?
0

A record lists "CC(=O)N1C[C@H](NC(=O)c2ccc3c(c2)OCO3)C(=O)N(CC(=O)N[C@H](C=O)CC(=O)O)c2ccccc21" . Is its IC50 below 0.9 µM?
0

---

Consider the following molecules; for each one, report its melting point.

Identify measured melting point associated with COc1cc(C(=O)N[C@H]2CCC(=O)N3CCC[C@@H](C(=O)N[C@H](C=O)CC(=O)O)N3C2=O)cc(OC)c1OC [Compound 417]
145 to 155 °C

Identify measured melting point associated with O=C[C@H](CC(=O)O)NC(=O)[C@@H]1CCCN2C(=O)CCN(NC(=O)Nc3ccccc3)C(=O)N12 [Compound 265f]
157 to 162 °C

Identify measured melting point associated with O=C1C[C@H](NC(=O)[C@@H]2CCCN3C(=O)CC[C@H](NC(=O)c4ccccc4)C(=O)N23)C(OC2CCCC2)O1 (stereo partly drawn) [Compound 2100l]
172 to 180 °C

Identify measured melting point associated with O=C1C[C@H](NC(=O)[C@@H]2CCCN3C(=O)CC[C@H](NC(=O)c4ccccc4)C(=O)N23)C(OCc2ccccc2)O1 (single isomer, unassigned) [Compound 2100n]
112 to 115 °C

Identify measured melting point associated with O=C[C@H](CC(=O)O)NC(=O)[C@@H]1CCCN2C(=O)CC[C@H](NC(=O)c3ccc4c(c3)OCO4)C(=O)N12 [Compound 415]
158 to 162 °C

Identify measured melting point associated with O=C[C@H](CC(=O)O)NC(=O)[C@@H]1CCCN2CCC[C@@H](NC(=O)c3ccccc3)C(=O)N12 [Compound 246b]
115 to 119 °C

---

Biological target: ICE (Homo sapiens)
Experiment: Enzyme assay with UV-visible substrate (visible ICE assay, Succinyl-Tyr-Val-Ala-Asp-pNitroanilide)
Format: biochemical
Conditions: Table 5
Consider the following molecules; for each one, report its pKi.
Lab note — pKi values are minus log10 of concentrations in M.

Identify measured pKi associated with CC(C)(C)OC(=O)C[C@@H](C=NOCCc1ccccc1)NC(=O)[C@@H]1CCCN2C(=O)CC[C@H](NC(=O)c3ccccc3)C(=O)N12 [Compound 307b]
6.78

Identify measured pKi associated with "CC(=O)N1C[C@H](NC(=O)c2sc(C)nc2C)C(=O)N(CC(=O)N[C@H](C=O)CC(=O)O)c2ccccc21"
6.98

Identify measured pKi associated with CC(=O)N1C[C@H](NC(=O)c2ccccc2)C(=O)N(CC(=O)N[C@H](C=O)CC(=O)O)c2c(C)cc(C)cc21 [Compound 605o]
7.14

Identify measured pKi associated with "CC(=O)N1C[C@H](NS(=O)(=O)c2ccccc2)C(=O)N(CC(=O)N[C@H](C=O)CC(=O)O)c2ccccc21"
6.64

Identify measured pKi associated with O=C[C@H](CC(=O)O)NC(=O)CN1C(=O)[C@@H](NC(=O)c2ccccc2)CN(C(=O)Cc2ccccc2)c2ccccc21 [Compound 605b]
7.35

Identify measured pKi associated with "O=C[C@H](CC(=O)O)NC(=O)[C@@H]1CCCN2C(=O)CC[C@H](NC(=O)c3ccc(Oc4ccccc4)cc3)C(=O)N12"
8.44

Identify measured pKi associated with O=C[C@H](CC(=O)O)NC(=O)CN1C(=O)[C@@H](NC(=O)c2ccccc2)CN(C(=O)Cc2ccncc2)c2ccccc21 [Compound 605s]
6.82

Identify measured pKi associated with CC(=O)CC(=O)N1C[C@H](NC(=O)c2ccccc2)C(=O)N(CC(=O)N[C@H](C=O)CC(=O)O)c2ccccc21 [Compound 605g]
6.78

---

Target: ICE (Homo sapiens)
Assay: Enzyme assay with UV-visible substrate (visible ICE assay, Succinyl-Tyr-Val-Ala-Asp-pNitroanilide)
Type: biochemical
Settings: Table 5
Consider the following molecules; for each one, report its Ki.
Your answer should be a plain number; it is taken to be in nM.

Would you please give the reported Ki of "O=C[C@H](CC(=O)O)NC(=O)[C@@H]1CCCN2C(=O)CC[C@H](NC(=O)c3ccc(NC(=O)Cc4ccccc4)cc3)C(=O)N12" with ICE (Homo sapiens)?
2.3

Would you please give the reported Ki of "CC(=O)Nc1ccc(C(=O)N[C@H]2CCC(=O)N3CCC[C@@H](C(=O)N[C@H](C=O)CC(=O)O)N3C2=O)cc1" with ICE (Homo sapiens)?
2.2

Would you please give the reported Ki of COC(=O)C[C@H](NC(=O)[C@@H]1CCCN2C(=O)CC[C@H](NC(=O)c3ccccc3)C(=O)N12)C(OC)OC [Compound 2100c] with ICE (Homo sapiens)?
7400

Would you please give the reported Ki of "O=C[C@H](CC(=O)O)NC(=O)[C@@H]1CCCN2C(=O)CCN(NC(=O)c3ccc4c(c3)OCO4)C(=O)N12" with ICE (Homo sapiens)?
40

Would you please give the reported Ki of CCOC(=O)C[C@H](NC(=O)[C@@H]1CCCN2C(=O)CC[C@H](NC(=O)c3ccccc3)C(=O)N12)C(OCC)OCC [Compound 2100b] with ICE (Homo sapiens)?
8000

---

Consider the following compounds; for each one, report its pKi.
Target: ICE (Homo sapiens, UniProt P29466)
Sequence (P29466 120-297 limits assumed): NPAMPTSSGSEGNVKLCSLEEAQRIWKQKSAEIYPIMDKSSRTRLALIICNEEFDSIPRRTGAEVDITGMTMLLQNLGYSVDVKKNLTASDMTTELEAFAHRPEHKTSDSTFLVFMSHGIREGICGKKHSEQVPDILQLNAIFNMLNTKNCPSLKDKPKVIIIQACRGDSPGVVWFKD
Sequence (P29466 317-404 limits assumed): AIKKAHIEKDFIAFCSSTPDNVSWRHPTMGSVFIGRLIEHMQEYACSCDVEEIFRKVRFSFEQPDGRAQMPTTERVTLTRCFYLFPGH
Test: Enzyme assay with UV-visible substrate (visible ICE assay, Succinyl-Tyr-Val-Ala-Asp-pNitroanilide)
Type: biochemical
Details: Table 5
Method: 1. Enzyme Assay with Uv-Visible Substrate This assay is run using an Succinyl-Tyr-Val-Ala-Asp-pNitroanilide substrate. Synthesis of analogous substrates is described by L. A. Reiter (Int. J. Peptide Protein Res. 12, 87-96 (1994)). The assay mixture contains: The visible ICE assay is run in a 96-well microtiter plate. […] The microtiter plate reader is set to incubate at 37° C. […] A linear fit of the data is performed and the rate is calculated in mOD/min. […]
Lab note — pKi values are minus log10 of concentrations in M.

Identify measured pKi associated with "O=C[C@H](CC(=O)O)NC(=O)[C@@H]1CCCN2C(=O)CC[C@H](NC(=O)c3cnns3)C(=O)N12"
7.21

Identify measured pKi associated with "CS(=O)(=O)c1ccc(C(=O)N[C@H]2CCC(=O)N3CCC[C@@H](C(=O)N[C@H](C=O)CC(=O)O)N3C2=O)cc1"
6.94

Identify measured pKi associated with COC(=O)N1C[C@H](NC(=O)c2ccccc2)C(=O)N(CC(=O)N[C@H](C=O)CC(=O)O)c2ccccc21 [Compound 605j]
6.96
